This collection of values is drawn from patent US8278294B2.

Please provide measured pIC50 for the entries that follow.
Molecular target: human recombinant ROCK II (Homo sapiens, UniProt O75116)
Construct: recombinant human ROCK-II residues 11-552; His6 (N)
Sequence (O75116 11-552): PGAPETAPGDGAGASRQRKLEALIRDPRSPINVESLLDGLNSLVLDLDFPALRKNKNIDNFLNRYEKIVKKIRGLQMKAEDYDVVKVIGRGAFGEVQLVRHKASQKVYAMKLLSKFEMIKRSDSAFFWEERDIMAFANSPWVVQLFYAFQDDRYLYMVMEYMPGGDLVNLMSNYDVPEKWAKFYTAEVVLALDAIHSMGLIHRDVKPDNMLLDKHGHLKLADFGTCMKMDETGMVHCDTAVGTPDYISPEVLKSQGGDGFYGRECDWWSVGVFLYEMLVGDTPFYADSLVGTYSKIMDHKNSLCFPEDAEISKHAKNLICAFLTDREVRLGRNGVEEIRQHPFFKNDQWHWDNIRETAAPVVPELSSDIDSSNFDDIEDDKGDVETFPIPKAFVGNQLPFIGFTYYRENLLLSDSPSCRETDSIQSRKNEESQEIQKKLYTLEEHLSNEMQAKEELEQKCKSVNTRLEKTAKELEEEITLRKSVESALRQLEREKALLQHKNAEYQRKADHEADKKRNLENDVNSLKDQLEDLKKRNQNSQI
Assay: Determination of Rho kinase inhibition (Caliper peptide phosphorylation assay)
Details: negative decadal logarithm of the IC50; ROCK II residues 11-552, fluorescein peptide substrate, ATP, 60 min at 32° C.; salt or free base as obtained in the examples
pIC50: −log10 of the molar value.

Some solved cases for reference:
>>> result("NC1(C(=O)N2CCC(Oc3cc4cc[nH]c(=O)c4cc3Cl)CC2)CC1")
"5.00 to 6.00"
>>> result("O=c1[nH]ccc2cc(O[C@H]3CCN(Cc4ccccc4)C3)c(Cl)cc12")
"5.00 to 6.00"
>>> result("O=C([C@@H]1CCCN1)N1CCC(Oc2cc3cc[nH]c(=O)c3cc2Cl)CC1")
"≥ 6.00"

# batch: return pIC50 for each of the 8 compounds below
1. N[C@@H](Cc1ccc(Cl)cc1)C(=O)N1CCC(Oc2cc3cc[nH]c(=O)c3cc2Cl)CC1
2. O=c1[nH]ccc2cc(OC3CCCNCC3)c(Cl)cc12 (stereo not drawn)
3. Cc1cc2c(=O)[nH]ccc2cc1OC[C@@H]1CCNC1
4. C[C@@H](N)C(=O)N1CCC(Oc2cc3cc[nH]c(=O)c3cc2Cl)CC1
5. Cc1cc2c(=O)[nH]ccc2cc1O[C@H]1CCNC1
6. O=c1[nH]ccc2cc(O[C@@H]3CCN(Cc4ccccc4)C3)c(Cl)cc12
7. O=c1[nH]ccc2cc(OC3CNC3)c(Cl)cc12
8. NCC(=O)N1CCC(Oc2ccc3c(=O)[nH]ccc3c2)CC1

["≥ 6.00", "≥ 6.00", "≥ 6.00", "≥ 6.00", "≥ 6.00", "≥ 6.00", "≥ 6.00", "≥ 6.00"]
